Hi there, I'd appreciate the recorded relative viability for every entry that follows.
Tested on: LOU-NH91
procedure summary: relative viability (nuclei count vs DMSO), 5 days (fraction); higher = more cells survive
cond: first compound 0.1 µM

Q. For the compound O=c1cc(N2CCOCC2)oc2c(-c3cccc4c3sc3ccccc34)cccc12 + CC1(C)CCC(c2ccc(Cl)cc2)=C(CN2CCN(c3ccc(C(=O)NS(=O)(=O)c4ccc(N[C@H](CCN5CCOCC5)CSc5ccccc5)c(S(=O)(=O)C(F)(F)F)c4)cc3)CC2)C1 [Navitoclax] (partner 0.5 µM) , report relative viability.
A. 0.695

Q. For the compound CCN(CC)CCCCNc1ncc2cc(-c3cc(OC)cc(OC)c3)c(NC(=O)NC(C)(C)C)nc2n1 + COc1cc2c(Oc3ccc(NC(=O)C4(C(=O)Nc5ccc(F)cc5)CC4)cc3F)ccnc2cc1OCCCN1CCOCC1 [Foretinib] (partner 0.25 µM) , report relative viability.
A. 0.959

Q. For the compound O=c1cc(N2CCOCC2)oc2c(-c3cccc4c3sc3ccccc34)cccc12 + NC(=O)Nc1cc(-c2cccc(F)c2)sc1C(=O)N[C@H]1CCCNC1 [AZD7762] (partner 0.2 µM) , report relative viability.
A. 0.803

Q. For the compound CCN(CC)CCCCNc1ncc2cc(-c3cc(OC)cc(OC)c3)c(NC(=O)NC(C)(C)C)nc2n1 + N=C(N)NC(=N)NCCc1ccccc1 [Phenformin] (partner 250 µM) , report relative viability.
A. 0.795

Q. For the compound O=c1cc(N2CCOCC2)oc2c(-c3cccc4c3sc3ccccc34)cccc12 + N=C(N)NC(=N)NCCc1ccccc1 [Phenformin] (partner 250 µM) , report relative viability.
A. 0.689

###

Hi there, I'd appreciate the recorded relative viability for every entry that follows.
System: Calu-6
procedure summary: relative viability (nuclei count vs DMSO), 5 days (fraction); higher = more cells survive
cond: first compound 0.3162 µM

Q. For the compound CCN(CC)CCCCNc1ncc2cc(-c3cc(OC)cc(OC)c3)c(NC(=O)NC(C)(C)C)nc2n1 + CS(=O)(=O)CCNCc1ccc(-c2ccc3ncnc(Nc4ccc(OCc5cccc(F)c5)c(Cl)c4)c3c2)o1 [Lapatinib] (partner 2 µM) , report relative viability.
A. 1.24

Q. For the compound O=c1cc(N2CCOCC2)oc2c(-c3cccc4c3sc3ccccc34)cccc12 + O=C(c1cc(Cc2n[nH]c(=O)c3ccccc23)ccc1F)N1CCN(C(=O)C2CC2)CC1 [Olaparib] (partner 8 µM) , report relative viability.
A. 0.484

Q. For the compound CCN(CC)CCCCNc1ncc2cc(-c3cc(OC)cc(OC)c3)c(NC(=O)NC(C)(C)C)nc2n1 + CS(=O)(=O)N1CCN(Cc2cc3nc(-c4cccc5[nH]ncc45)nc(N4CCOCC4)c3s2)CC1 [Pictilisib] (partner 1 µM) , report relative viability.
A. 1.09

Q. For the compound CCN(CC)CCCCNc1ncc2cc(-c3cc(OC)cc(OC)c3)c(NC(=O)NC(C)(C)C)nc2n1 + C[C@]1(O)C[C@@H](c2nc(-c3ccc4ccc(-c5ccccc5)nc4c3)c3c(N)nccn32)C1 [Linsitinib] (partner 1 µM) , report relative viability.
A. 0.898

###

Tested on: HCC-15
procedure summary: relative viability (nuclei count vs DMSO), 5 days (fraction); higher = more cells survive
cond: first compound 2 µM
Labelling: relative viability reported below 1 becomes yes; at or above becomes no.

Q. Is it true that relative viability reported for COCC1(CO)C(=O)C2CCN1CC2 (stereo not given) [PRIMA-1MET] + CS(=O)(=O)CCNCc1ccc(-c2ccc3ncnc(Nc4ccc(OCc5cccc(F)c5)c(Cl)c4)c3c2)o1 [Lapatinib] (partner 2 µM) is less than 1?
A. yes

Q. Is it true that relative viability reported for COCC1(CO)C(=O)C2CCN1CC2 (stereo not given) [PRIMA-1MET] + COc1cc2c(Oc3ccc(NC(=O)C4(C(=O)Nc5ccc(F)cc5)CC4)cc3F)ccnc2cc1OCCCN1CCOCC1 [Foretinib] (partner 0.25 µM) is less than 1?
A. no

Q. Is it true that relative viability reported for COCC1(CO)C(=O)C2CCN1CC2 (stereo not given) [PRIMA-1MET] + CCNC(=O)c1noc(-c2cc(C(C)C)c(O)cc2O)c1-c1ccc(CN2CCOCC2)cc1 [Luminespib] (partner 0.01 µM) is less than 1?
A. yes

Q. Is it true that relative viability reported for COCC1(CO)C(=O)C2CCN1CC2 (stereo not given) [PRIMA-1MET] + CC(C)C[C@H](NC(=O)[C@H](Cc1ccccc1)NC(=O)c1cnccn1)B(O)O [Bortezomib] (partner 0.002 µM) is less than 1?
A. no

Q. Is it true that relative viability reported for COCC1(CO)C(=O)C2CCN1CC2 (stereo not given) [PRIMA-1MET] + C[C@]1(O)C[C@@H](c2nc(-c3ccc4ccc(-c5ccccc5)nc4c3)c3c(N)nccn32)C1 [Linsitinib] (partner 1 µM) is less than 1?
A. yes

###

System: PC-3 [JPC-3]
procedure summary: relative viability (nuclei count vs DMSO), 5 days (fraction); higher = more cells survive
cond: first compound 0.1 µM
outcome measure: relative viability
The response must contain the number and no unit.

Q. For the molecule CCN(CC)CCCCNc1ncc2cc(-c3cc(OC)cc(OC)c3)c(NC(=O)NC(C)(C)C)nc2n1 + CC(=O)Nc1cccc(-n2c(=O)n(C3CC3)c(=O)c3c(Nc4ccc(I)cc4F)n(C)c(=O)c(C)c32)c1 [Trametinib] (partner 0.02 µM) , report relative viability.
A. 0.766

Q. For the molecule CCN(CC)CCCCNc1ncc2cc(-c3cc(OC)cc(OC)c3)c(NC(=O)NC(C)(C)C)nc2n1 + C[C@@H](Oc1cc(-c2cnn(C3CCNCC3)c2)cnc1N)c1c(Cl)ccc(F)c1Cl [Crizotinib] (partner 1 µM) , report relative viability.
A. 1.04

Q. For the molecule O=c1cc(N2CCOCC2)oc2c(-c3cccc4c3sc3ccccc34)cccc12 + NC(=O)Nc1cc(-c2cccc(F)c2)sc1C(=O)N[C@H]1CCCNC1 [AZD7762] (partner 0.2 µM) , report relative viability.
A. 0.87

###

Tested on: NCI-H1993
procedure summary: relative viability (nuclei count vs DMSO), 5 days (fraction); higher = more cells survive
cond: first compound 0.1 µM
outcome measure: relative viability
The response must contain the number and no unit.

Q. System NCI-H1993. Read-out relative viability. Item O=c1cc(N2CCOCC2)oc2c(-c3cccc4c3sc3ccccc34)cccc12 + O=C(CCCCCCC(=O)Nc1ccccc1)NO [Vorinostat] (partner 1 µM) . Report value.
A. 0.94

Q. System NCI-H1993. Read-out relative viability. Item O=c1cc(N2CCOCC2)oc2c(-c3cccc4c3sc3ccccc34)cccc12 + O=C(c1cc(Cc2n[nH]c(=O)c3ccccc23)ccc1F)N1CCN(C(=O)C2CC2)CC1 [Olaparib] (partner 8 µM) . Report value.
A. 1.23

Q. System NCI-H1993. Read-out relative viability. Item O=c1cc(N2CCOCC2)oc2c(-c3cccc4c3sc3ccccc34)cccc12 + CS(=O)(=O)CCNCc1ccc(-c2ccc3ncnc(Nc4ccc(OCc5cccc(F)c5)c(Cl)c4)c3c2)o1 [Lapatinib] (partner 2 µM) . Report value.
A. 0.813

Q. System NCI-H1993. Read-out relative viability. Item O=c1cc(N2CCOCC2)oc2c(-c3cccc4c3sc3ccccc34)cccc12 + Cc1cc(Nc2cc(N3CCN(C)CC3)nc(Sc3ccc(NC(=O)C4CC4)cc3)n2)n[nH]1 [Tozasertib] (partner 0.1 µM) . Report value.
A. 0.569

Q. System NCI-H1993. Read-out relative viability. Item O=c1cc(N2CCOCC2)oc2c(-c3cccc4c3sc3ccccc34)cccc12 + CC(=O)Nc1cccc(-n2c(=O)n(C3CC3)c(=O)c3c(Nc4ccc(I)cc4F)n(C)c(=O)c(C)c32)c1 [Trametinib] (partner 0.02 µM) . Report value.
A. 0.507

Q. System NCI-H1993. Read-out relative viability. Item CCN(CC)CCCCNc1ncc2cc(-c3cc(OC)cc(OC)c3)c(NC(=O)NC(C)(C)C)nc2n1 + CC(C)C[C@H](NC(=O)[C@H](Cc1ccccc1)NC(=O)c1cnccn1)B(O)O [Bortezomib] (partner 0.002 µM) . Report value.
A. 1.26

###

Tested on: PC-14
procedure summary: relative viability (nuclei count vs DMSO), 5 days (fraction); higher = more cells survive
cond: first compound 0.8 µM
Labelling: relative viability reported below 0.3 becomes TRUE; at or above becomes FALSE.

Q. Is it true that relative viability reported for COc1nc(C)cnc1NS(=O)(=O)c1cccnc1-c1ccc(-c2nnco2)cc1 [Zibotentan] + NC(=O)Nc1cc(-c2cccc(F)c2)sc1C(=O)N[C@H]1CCCNC1 [AZD7762] (partner 0.2 µM) is less than 0.3?
A. FALSE

Q. Is it true that relative viability reported for COc1nc(C)cnc1NS(=O)(=O)c1cccnc1-c1ccc(-c2nnco2)cc1 [Zibotentan] + O=C(c1cc(Cc2n[nH]c(=O)c3ccccc23)ccc1F)N1CCN(C(=O)C2CC2)CC1 [Olaparib] (partner 8 µM) is less than 0.3?
A. TRUE

Q. Is it true that relative viability reported for O=c1cc(-c2cccc3c2Sc2ccccc2S3)oc(N2CCOCC2)c1 + O=C(CCCCCCC(=O)Nc1ccccc1)NO [Vorinostat] (partner 1 µM) is less than 0.3?
A. FALSE

Q. Is it true that relative viability reported for COc1nc(C)cnc1NS(=O)(=O)c1cccnc1-c1ccc(-c2nnco2)cc1 [Zibotentan] + CCNC(=O)c1noc(-c2cc(C(C)C)c(O)cc2O)c1-c1ccc(CN2CCOCC2)cc1 [Luminespib] (partner 0.01 µM) is less than 0.3?
A. TRUE

Q. Is it true that relative viability reported for O=c1cc(-c2cccc3c2Sc2ccccc2S3)oc(N2CCOCC2)c1 + Cc1nc(NC(=O)N2CCC[C@H]2C(N)=O)sc1-c1ccnc(C(C)(C)C(F)(F)F)c1 [Alpelisib] (partner 2 µM) is less than 0.3?
A. FALSE

Q. Is it true that relative viability reported for COc1nc(C)cnc1NS(=O)(=O)c1cccnc1-c1ccc(-c2nnco2)cc1 [Zibotentan] + C[C@@H](Oc1cc(-c2cnn(C3CCNCC3)c2)cnc1N)c1c(Cl)ccc(F)c1Cl [Crizotinib] (partner 1 µM) is less than 0.3?
A. FALSE

Q. Is it true that relative viability reported for COc1nc(C)cnc1NS(=O)(=O)c1cccnc1-c1ccc(-c2nnco2)cc1 [Zibotentan] + Cc1nc(Nc2ncc(C(=O)Nc3c(C)cccc3Cl)s2)cc(N2CCN(CCO)CC2)n1 [Dasatinib] (partner 0.075 µM) is less than 0.3?
A. TRUE

Q. Is it true that relative viability reported for O=c1cc(-c2cccc3c2Sc2ccccc2S3)oc(N2CCOCC2)c1 + CS(=O)(=O)N1CCN(Cc2cc3nc(-c4cccc5[nH]ncc45)nc(N4CCOCC4)c3s2)CC1 [Pictilisib] (partner 1 µM) is less than 0.3?
A. FALSE

Q. Is it true that relative viability reported for O=c1cc(-c2cccc3c2Sc2ccccc2S3)oc(N2CCOCC2)c1 + N=C(N)NC(=N)NCCc1ccccc1 [Phenformin] (partner 250 µM) is less than 0.3?
A. FALSE

Q. Is it true that relative viability reported for COc1nc(C)cnc1NS(=O)(=O)c1cccnc1-c1ccc(-c2nnco2)cc1 [Zibotentan] + CC(=O)Nc1cccc(-n2c(=O)n(C3CC3)c(=O)c3c(Nc4ccc(I)cc4F)n(C)c(=O)c(C)c32)c1 [Trametinib] (partner 0.02 µM) is less than 0.3?
A. FALSE

Measured values drawn from the supplement of paper PMC10307832 for this set.
